# Study Conditions: in n-octanol, 303.15 K
Measurement Label: solubility (mole fraction)
Answer as a number with no unit attached.

Enquiry: Read off the recorded solubility (mole fraction) for CN(C)CCC=C1c2ccccc2CCc2ccccc21.Cl
Return: 0.00568

---

# Study Conditions: in 2-butoxyethanol, 298.15 K
Measurement Label: solubility (mole fraction)
Answer as a number with no unit attached.

Enquiry: Read off the recorded solubility (mole fraction) for CN(C)CCC=C1c2ccccc2CCc2ccccc21.Cl
Return: 0.066

---

# Study Conditions: in n-hexanol, 278.15 K
Measurement Label: solubility (mole fraction)
Answer as a number with no unit attached.

Enquiry: Read off the recorded solubility (mole fraction) for CN(C)CCC=C1c2ccccc2CCc2ccccc21.Cl
Return: 0.0116

---

# Study Conditions: in n-octanol, 288.15 K
Measurement Label: solubility (mole fraction)
Answer as a number with no unit attached.

Enquiry: Read off the recorded solubility (mole fraction) for CN(C)CCC=C1c2ccccc2CCc2ccccc21.Cl
Return: 0.00322

---

# Study Conditions: in 2-butoxyethanol, 278.15 K
Measurement Label: solubility (mole fraction)
Answer as a number with no unit attached.

Enquiry: Read off the recorded solubility (mole fraction) for CN(C)CCC=C1c2ccccc2CCc2ccccc21.Cl
Return: 0.0451

---

# Study Conditions: in n-butanol, 293.15 K
Measurement Label: solubility (mole fraction)
Answer as a number with no unit attached.

Enquiry: Read off the recorded solubility (mole fraction) for CN(C)CCC=C1c2ccccc2CCc2ccccc21.Cl
Return: 0.0316

---

# Study Conditions: in DMF, 308.15 K
Measurement Label: solubility (mole fraction)

Enquiry: Read off the recorded solubility (mole fraction) for CN(C)CCC=C1c2ccccc2CCc2ccccc21.Cl
Return: 0.0509

---

# Study Conditions: in ethanol, 278.15 K
Measurement Label: solubility (mole fraction)

Enquiry: Read off the recorded solubility (mole fraction) for CN(C)CCC=C1c2ccccc2CCc2ccccc21.Cl
Return: 0.0337

---

# Study Conditions: in 2-methoxyethanol, 313.15 K
Measurement Label: solubility (mole fraction)
Answer as a number with no unit attached.

Enquiry: Read off the recorded solubility (mole fraction) for CN(C)CCC=C1c2ccccc2CCc2ccccc21.Cl
Return: 0.169

---

# Study Conditions: in 2-butoxyethanol, 323.15 K
Measurement Label: solubility (mole fraction)
Answer as a number with no unit attached.

Enquiry: Read off the recorded solubility (mole fraction) for CN(C)CCC=C1c2ccccc2CCc2ccccc21.Cl
Return: 0.102

---

# Study Conditions: in 2-ethoxyethanol, 303.15 K
Measurement Label: solubility (mole fraction)
Answer as a number with no unit attached.

Enquiry: Read off the recorded solubility (mole fraction) for CN(C)CCC=C1c2ccccc2CCc2ccccc21.Cl
Return: 0.115

---

# Study Conditions: in methanol, 303.15 K
Measurement Label: solubility (mole fraction)
Answer as a number with no unit attached.

Enquiry: Read off the recorded solubility (mole fraction) for CN(C)CCC=C1c2ccccc2CCc2ccccc21.Cl
Return: 0.183

---

# Study Conditions: in 2-propoxyethanol, 293.15 K
Measurement Label: solubility (mole fraction)
Answer as a number with no unit attached.

Enquiry: Read off the recorded solubility (mole fraction) for CN(C)CCC=C1c2ccccc2CCc2ccccc21.Cl
Return: 0.075

---

# Study Conditions: in DMF, 318.15 K
Measurement Label: solubility (mole fraction)
Answer as a number with no unit attached.

Enquiry: Read off the recorded solubility (mole fraction) for CN(C)CCC=C1c2ccccc2CCc2ccccc21.Cl
Return: 0.0611

---

# Study Conditions: in n-octanol, 298.15 K
Measurement Label: solubility (mole fraction)
Answer as a number with no unit attached.

Enquiry: Read off the recorded solubility (mole fraction) for CN(C)CCC=C1c2ccccc2CCc2ccccc21.Cl
Return: 0.00471

---

# Study Conditions: in 2-propoxyethanol, 283.15 K
Measurement Label: solubility (mole fraction)

Enquiry: Read off the recorded solubility (mole fraction) for CN(C)CCC=C1c2ccccc2CCc2ccccc21.Cl
Return: 0.0641

---

# Study Conditions: in ethanol, 283.15 K
Measurement Label: solubility (mole fraction)
Answer as a number with no unit attached.

Enquiry: Read off the recorded solubility (mole fraction) for CN(C)CCC=C1c2ccccc2CCc2ccccc21.Cl
Return: 0.0423

---

# Study Conditions: in n-hexanol, 303.15 K
Measurement Label: solubility (mole fraction)

Enquiry: Read off the recorded solubility (mole fraction) for CN(C)CCC=C1c2ccccc2CCc2ccccc21.Cl
Return: 0.0332

---

# Study Conditions: in n-propanol, 313.15 K
Measurement Label: solubility (mole fraction)
Answer as a number with no unit attached.

Enquiry: Read off the recorded solubility (mole fraction) for CN(C)CCC=C1c2ccccc2CCc2ccccc21.Cl
Return: 0.101

---

# Study Conditions: in ethanol, 318.15 K
Measurement Label: solubility (mole fraction)
Answer as a number with no unit attached.

Enquiry: Read off the recorded solubility (mole fraction) for CN(C)CCC=C1c2ccccc2CCc2ccccc21.Cl
Return: 0.136

---

# Study Conditions: in n-heptanol, 313.15 K
Measurement Label: solubility (mole fraction)
Answer as a number with no unit attached.

Enquiry: Read off the recorded solubility (mole fraction) for CN(C)CCC=C1c2ccccc2CCc2ccccc21.Cl
Return: 0.0402

---

# Study Conditions: in n-butanol, 308.15 K
Measurement Label: solubility (mole fraction)

Enquiry: Read off the recorded solubility (mole fraction) for CN(C)CCC=C1c2ccccc2CCc2ccccc21.Cl
Return: 0.0628

---

# Study Conditions: in n-butanol, 303.15 K
Measurement Label: solubility (mole fraction)
Answer as a number with no unit attached.

Enquiry: Read off the recorded solubility (mole fraction) for CN(C)CCC=C1c2ccccc2CCc2ccccc21.Cl
Return: 0.0508

---

# Study Conditions: in 2-ethoxyethanol, 293.15 K
Measurement Label: solubility (mole fraction)
Answer as a number with no unit attached.

Enquiry: Read off the recorded solubility (mole fraction) for CN(C)CCC=C1c2ccccc2CCc2ccccc21.Cl
Return: 0.101

---

# Study Conditions: in n-heptanol, 318.15 K
Measurement Label: solubility (mole fraction)
Answer as a number with no unit attached.

Enquiry: Read off the recorded solubility (mole fraction) for CN(C)CCC=C1c2ccccc2CCc2ccccc21.Cl
Return: 0.0484

---

# Study Conditions: in 2-propoxyethanol, 298.15 K
Measurement Label: solubility (mole fraction)
Answer as a number with no unit attached.

Enquiry: Read off the recorded solubility (mole fraction) for CN(C)CCC=C1c2ccccc2CCc2ccccc21.Cl
Return: 0.0814

---

# Study Conditions: in n-propanol, 283.15 K
Measurement Label: solubility (mole fraction)
Answer as a number with no unit attached.

Enquiry: Read off the recorded solubility (mole fraction) for CN(C)CCC=C1c2ccccc2CCc2ccccc21.Cl
Return: 0.028

---

# Study Conditions: in n-butanol, 288.15 K
Measurement Label: solubility (mole fraction)

Enquiry: Read off the recorded solubility (mole fraction) for CN(C)CCC=C1c2ccccc2CCc2ccccc21.Cl
Return: 0.0242

---

# Study Conditions: in NMP, 303.15 K
Measurement Label: solubility (mole fraction)
Answer as a number with no unit attached.

Enquiry: Read off the recorded solubility (mole fraction) for CN(C)CCC=C1c2ccccc2CCc2ccccc21.Cl
Return: 0.0492

---

# Study Conditions: in n-pentanol, 288.15 K
Measurement Label: solubility (mole fraction)
Answer as a number with no unit attached.

Enquiry: Read off the recorded solubility (mole fraction) for CN(C)CCC=C1c2ccccc2CCc2ccccc21.Cl
Return: 0.02

---

# Study Conditions: in 2-butoxyethanol, 318.15 K
Measurement Label: solubility (mole fraction)

Enquiry: Read off the recorded solubility (mole fraction) for CN(C)CCC=C1c2ccccc2CCc2ccccc21.Cl
Return: 0.0942

---

# Study Conditions: in n-propanol, 308.15 K
Measurement Label: solubility (mole fraction)
Answer as a number with no unit attached.

Enquiry: Read off the recorded solubility (mole fraction) for CN(C)CCC=C1c2ccccc2CCc2ccccc21.Cl
Return: 0.0855

---

# Study Conditions: in n-octanol, 308.15 K
Measurement Label: solubility (mole fraction)
Answer as a number with no unit attached.

Enquiry: Read off the recorded solubility (mole fraction) for CN(C)CCC=C1c2ccccc2CCc2ccccc21.Cl
Return: 0.00688

---

# Study Conditions: in n-pentanol, 323.15 K
Measurement Label: solubility (mole fraction)

Enquiry: Read off the recorded solubility (mole fraction) for CN(C)CCC=C1c2ccccc2CCc2ccccc21.Cl
Return: 0.0887

---

# Study Conditions: in n-butanol, 278.15 K
Measurement Label: solubility (mole fraction)

Enquiry: Read off the recorded solubility (mole fraction) for CN(C)CCC=C1c2ccccc2CCc2ccccc21.Cl
Return: 0.0148

---

# Study Conditions: in NMP, 288.15 K
Measurement Label: solubility (mole fraction)
Answer as a number with no unit attached.

Enquiry: Read off the recorded solubility (mole fraction) for CN(C)CCC=C1c2ccccc2CCc2ccccc21.Cl
Return: 0.0372

---

# Study Conditions: in n-octanol, 283.15 K
Measurement Label: solubility (mole fraction)
Answer as a number with no unit attached.

Enquiry: Read off the recorded solubility (mole fraction) for CN(C)CCC=C1c2ccccc2CCc2ccccc21.Cl
Return: 0.00267

---

# Study Conditions: in 2-methoxyethanol, 318.15 K
Measurement Label: solubility (mole fraction)
Answer as a number with no unit attached.

Enquiry: Read off the recorded solubility (mole fraction) for CN(C)CCC=C1c2ccccc2CCc2ccccc21.Cl
Return: 0.177
